# test-target: T1, DRB1*0401 molecules, detergent solubilised (human), P01903
# T1 chain 1: not shown
# T1 chain 2: not shown
# experiment: competition assay on detergent solubilised DRB1*0401 (1 µM) with biotinylated HA-marker peptide (100 nM)
pIC50: −log10 of the molar value. Ends that are not written are not given here.
# pIC50 annotations

The binder listed as SYRLRSPVISIDPPS (modifications not checked) [Perlecan: …] shows pIC50 equal to 4.49 to 4.80

The binder listed as QPLVQTAVTNIDRPK (modifications not checked) [Fibronectin: …] shows pIC50 equal to 4.19 to 4.49

The binder listed as LGGSGTPVDELDKCC (not fully specified; cysteine pairing not given here) [Phospholipase A2: …] shows pIC50 equal to 3.59 to 3.89

More entries:
The binder listed as QLLGVSASVPVEHRD (modifications not checked) [Chondroitin sulf.(1): …] shows pIC50 equal to 4.19 to 4.49

The binder listed as SSFWPSLPSGVDAAY (modifications not checked) [MMP-3 (1): …] shows pIC50 equal to 4.49 to 4.80

The binder listed as MTSLKSVNGQIESLI (modifications not checked) [(Pro)collagen α1(III): …] shows pIC50 equal to 3.89 to 4.19

The binder listed as FFYFFTGSSQLEFDP (modifications not checked) [MMP-3 (2): …] shows pIC50 equal to 5.10

The binder listed as TTTVSSFSLNVEYAI (modifications not checked) [Versican: …] shows pIC50 equal to 3.59 to 3.89

The binder listed as SAFWPSLPSYLDAAY (modifications not checked) [MMP-10: …] shows pIC50 equal to 4.80 to 5.10

The binder listed as EDLVGSASGDLDLGK (modifications not checked) [Aggrecan (1): …] shows pIC50 equal to 4.19 to 4.49

The binder listed as QGTIDTAVLHLDTNL (modifications not checked) [Chondroitin sulf.(4): …] shows pIC50 equal to 4.80 to 5.10
